- protocol-details: Stability (moisture content) at 23° C. and 92.5% humidity
- Format: physicochemical
- conditions-used: temperature 23° C., humidity 92.5%, 1 h
# if value of moisture content reaches 0.6%, tag YES; if it stays below, tag NO

Does moisture content meet or surpass 0.6% for CC(C)(O)CC(=O)O [HMB-Na complex] ?
NO

Would you mind doing CC(C)(O)CC(=O)O [HMB-Ca complex] as well?
NO

Would you mind doing CC(C)(O)CC(=O)[O-].[Na+] [sodium 3-hydroxy-3-methylbutyrate, reference compound] as well?
YES

Would you mind doing CC(C)(O)CC(=O)[O-].[K+] [potassium 3-hydroxy-3-methylbutyrate, reference compound] as well?
YES

* * *

- protocol-details: Stability (moisture content) at 23° C. and 92.5% humidity
- Type: physicochemical
- conditions-used: temperature 23° C., humidity 92.5%, 4 h
measured-parameter: moisture content (%)
// units = %; emit number, no label

Look up moisture content: CC(C)(O)CC(=O)[O-].[Na+] [sodium 3-hydroxy-3-methylbutyrate, reference compound]
1.98

Would you mind doing CC(C)(O)CC(=O)O [HMB-K complex] as well?
1.80

Would you mind doing CC(C)(O)CC(=O)O [HMB-Na complex] as well?
1.39

Would you mind doing CC(C)(O)CC(=O)O [HMB-Ca complex] as well?
0.87

Would you mind doing CC(C)(O)CC(=O)[O-].[K+] [potassium 3-hydroxy-3-methylbutyrate, reference compound] as well?
2.57

* * *

- protocol-details: Stability (moisture content) at 23° C. and 92.5% humidity
- Type: physicochemical
- conditions-used: temperature 23° C., humidity 92.5%, 30 min
measured-parameter: moisture content (%)
// units = %; emit number, no label

Look up moisture content: CC(C)(O)CC(=O)[O-].[Na+] [sodium 3-hydroxy-3-methylbutyrate, reference compound]
0.32

Would you mind doing CC(C)(O)CC(=O)O [HMB-K complex] as well?
0.29

Would you mind doing CC(C)(O)CC(=O)[O-].[K+] [potassium 3-hydroxy-3-methylbutyrate, reference compound] as well?
0.42

Would you mind doing CC(C)(O)CC(=O)O [HMB-Ca complex] as well?
0.14

Would you mind doing CC(C)(O)CC(=O)O [HMB-Na complex] as well?
0.22

* * *

- protocol-details: Solubility of 3-hydroxy-3-methylbutyrate salts and complexes
- Assay type: physicochemical
measured-parameter: Solubility (g/100)
// units = g/100; emit number, no label

Look up Solubility: CC(C)(O)CC(=O)O [HMB-Na complex]
135

Would you mind doing CC(C)(O)CC(=O)O [HMB-K complex] as well?
225

Would you mind doing CC(C)(O)CC(=O)O [HMB-Ca complex] as well?
32

Would you mind doing CC(C)(O)CC(=O)[O-].[Na+] [sodium 3-hydroxy-3-methylbutyrate, reference compound] as well?
72.9

Would you mind doing CC(C)(O)CC(=O)[O-].[K+] [potassium 3-hydroxy-3-methylbutyrate, reference compound] as well?
101.1

* * *

- protocol-details: Stability (moisture content) at 23° C. and 92.5% humidity
- Format: physicochemical
- conditions-used: temperature 23° C., humidity 92.5%, 22 h
So I've got a bunch of compounds here, and I need their moisture content values.
// units = %; emit number, no label

Look up moisture content: CC(C)(O)CC(=O)[O-].[Na+] [sodium 3-hydroxy-3-methylbutyrate, reference compound]
5.47

Would you mind doing CC(C)(O)CC(=O)O [HMB-Ca complex] as well?
2.40

Would you mind doing CC(C)(O)CC(=O)[O-].[K+] [potassium 3-hydroxy-3-methylbutyrate, reference compound] as well?
7.11

Would you mind doing CC(C)(O)CC(=O)O [HMB-K complex] as well?
4.98

Would you mind doing CC(C)(O)CC(=O)O [HMB-Na complex] as well?
3.83

* * *

- protocol-details: Stability (moisture content) at 23° C. and 92.5% humidity
- Format: physicochemical
- conditions-used: temperature 23° C., humidity 92.5%, 2 h
- Protocol: The stability of various 3-hydroxy-3-methylbutyrate salts and the complexes of the present disclosure was each measured at 23° C. and 92.5% humidity, and the results are shown in Table 7.
So I've got a bunch of molecules here, and I need their moisture content values.
// units = %; emit number, no label

Look up moisture content: CC(C)(O)CC(=O)[O-].[Na+] [sodium 3-hydroxy-3-methylbutyrate, reference compound]
1.07

Would you mind doing CC(C)(O)CC(=O)O [HMB-K complex] as well?
0.97

Would you mind doing CC(C)(O)CC(=O)O [HMB-Na complex] as well?
0.75

Would you mind doing CC(C)(O)CC(=O)O [HMB-Ca complex] as well?
0.47

Would you mind doing CC(C)(O)CC(=O)[O-].[K+] [potassium 3-hydroxy-3-methylbutyrate, reference compound] as well?
1.39

* * *

- protocol-details: Stability (moisture content) at 23° C. and 92.5% humidity
- Assay type: physicochemical
- conditions-used: temperature 23° C., humidity 92.5%, 6 h
measured-parameter: moisture content (%)
// units = %; emit number, no label

Look up moisture content: CC(C)(O)CC(=O)[O-].[Na+] [sodium 3-hydroxy-3-methylbutyrate, reference compound]
2.32

Would you mind doing CC(C)(O)CC(=O)O [HMB-Ca complex] as well?
1.02

Would you mind doing CC(C)(O)CC(=O)O [HMB-Na complex] as well?
1.62

Would you mind doing CC(C)(O)CC(=O)O [HMB-K complex] as well?
2.11

Would you mind doing CC(C)(O)CC(=O)[O-].[K+] [potassium 3-hydroxy-3-methylbutyrate, reference compound] as well?
3.02

* * *

- protocol-details: Stability (moisture content) at 23° C. and 92.5% humidity
- Type: physicochemical
- conditions-used: temperature 23° C., humidity 92.5%, 11 h
measured-parameter: moisture content (%)
// units = %; emit number, no label

Look up moisture content: CC(C)(O)CC(=O)[O-].[Na+] [sodium 3-hydroxy-3-methylbutyrate, reference compound]
3.13

Would you mind doing CC(C)(O)CC(=O)O [HMB-Na complex] as well?
2.19

Would you mind doing CC(C)(O)CC(=O)O [HMB-K complex] as well?
2.85

Would you mind doing CC(C)(O)CC(=O)[O-].[K+] [potassium 3-hydroxy-3-methylbutyrate, reference compound] as well?
4.07

Would you mind doing CC(C)(O)CC(=O)O [HMB-Ca complex] as well?
1.37
